Source listed as the supplement of paper PMC9023506.

Tested on: Danio rerio larvae (5 dpf)
Experiment: activity during period 15 (no stimuli), difference vs DMSO (percentage points (treated minus DMSO)); higher = more of the behaviour than the DMSO vehicle control
Settings: 10 µM; exposure time: 3 h pre-incubation + 3 h imaging
Listed below: activity during period 15 values for each entry.
Field format: numeric only.

{"columns": ["Compound", "Number"],
 "data": [
  ["CCOC(=O)C1=C(COCCN)NC(C)=C(C(=O)OC)C1c1ccccc1Cl (configuration not stated) [Amlodipine besylate]", 3.16],
  ["CCCCC1=NC2(CCCC2)C(=O)N1Cc1ccc(-c2ccccc2-c2nnn[nH]2)cc1 [Irbesartan]", 5.68],
  ["COc1cc([C@@H]2c3cc4c(cc3[C@@H](O[C@@H]3O[C@@H]5CO[C@@H](C)O[C@H]5[C@H](O)[C@H]3O)[C@H]3COC(=O)[C@H]23)OCO4)cc(OC)c1O [Etoposide]", -4.13],
  ["O=C(O)c1cc(/N=N/c2ccc(S(=O)(=O)Nc3ccccn3)cc2)ccc1O [Sulfasalazine]", 15.3],
  ["C=C1[C@H](CO)[C@@H](O)C[C@@H]1n1cnc2c(=O)[nH]c(N)nc21 [Entecavir]", -0.773],
  ["CC(C)c1nc(CN(C)C(=O)N[C@H](C(=O)N[C@@H](Cc2ccccc2)C[C@H](O)[C@H](Cc2ccccc2)NC(=O)OCc2cncs2)C(C)C)cs1 [Ritonavir]", -8.67]
]}

// next entry
Report activity during period 15 from Danio rerio larvae (5 dpf) testing of CCCC1O[C@@H]2C[C@H]3[C@@H]4CCC5=CC(=O)C=C[C@]5(C)[C@H]4[C@@H](O)C[C@]3(C)[C@]2(C(=O)CO)O1 (some centres not stated) [Budesonide]
5.26
